Each entry below lists one item and its recorded Biodistribution, Mean, B 16 value.
test system: grafted B16 F0 murine melanoma tumour; test: Biodistribution of the ^125I-labelled molecules in the melanoma-bearing mouse (autoradiography of whole-body sections); conditions: B 16 tumour; 3 H
Structures can show the parent of a compound that is named as a salt.
Give a plain numeric answer without units written out.

Solved cases below.
CCN(CC)CCNC(=O)c1cccc2cc3cc(I)ccc3nc12 [compound 111, dihydrochloride] | 3.98
CCN(CC)CCNC(=O)c1ccc2cncc(I)c2n1.Cl.Cl | 13.87
CCCN(CCC)CCCCNC(=O)c1ccc2cc(I)ccc2n1 [compound 49, dihydrochloride] | 20.34
CCN(CC)CCNC(=O)c1c[nH]c2ccc(I)cc2c1=O [compound 35, dihydrochloride] | 4.05
CCN(CC)CCNC(=O)c1cnc2cc(I)ccc2n1.Cl.Cl | 27.68

State its Biodistribution, Mean, B 16 on grafted B16 F0 murine melanoma tumour: CCN(CC)CCNC(=O)c1cc2c(I)cccc2cn1 [compound 39, dihydrochloride] 7.12
